Assay: yeast display, Sf9 membrane polyspecificity reagent, FACS + sequencing; frameworks hold sequencing errors
Experimental readout: polyreactivity (PSR sort gate)

[
  {
    "Chain sequence": "QVQIVESGGGLVQAGGSLRLSCAASGRIFSQNTMGWYRQAPGKERELVAVISWRGGRTSYADSVKGRFTISRDNAQNTVYLQMNSLKPEDTAVYYCNAKRYAGSNYDYWGQGTQVTVSS",
    "polyreactivity (PSR sort gate)": "high polyreactivity"
  },
  {
    "Chain sequence": "QVQLVESGGGLVQAGGSLRLICAASGFTFEYYAMGWYRQAPGKERELVAAISGSGVSTYYADSVKGRFTISRDNAKNTVYLQMNSLNPEDTAVYYCAALGDKYGSNRLDHYWYIWYDSWGQGTQVTVSS",
    "polyreactivity (PSR sort gate)": "low polyreactivity"
  },
  {
    "Chain sequence": "QVQLEESGGGLVQAGGSLRLSCAASGRTFVLNVMGWYRQAPGKERELVATISGVGSTNYADSVKGRFTISRDNAKNTVYLQMNSLKPEDTAVYYCAKDPHVGRWWDLYSPYYSWGQGTQVTVSS",
    "polyreactivity (PSR sort gate)": "low polyreactivity"
  },
  {
    "Chain sequence": "QVQLGESGGGLVQAGGSLRLSCAASGLTLYLYTMGWYREAPGKEMELVASIDSGTSTKYADSVKGRFTISRDNAKNTVYLQMNSLKPEDTAVYYCAAGVWVTRYFRYYYWGQGTLVTVSS",
    "polyreactivity (PSR sort gate)": "low polyreactivity"
  },
  {
    "Chain sequence": "QVQLVESGGGLVQAGGSLRLSCAASGFTFSSNAMGWYRQAPGKERELVAAIRGSDGNTYYADSVKGRFTISRDNAKNTVYLQMNSLKPEDTAVYYCNARSYGYRTSRARYNYWGQGTQVTVSS",
    "polyreactivity (PSR sort gate)": "high polyreactivity"
  },
  {
    "Chain sequence": "QFHLVESGGGLVQAGGSLRLSCAAYGIIFYSYTMGWYRQAPGKERELVAAISRSGGSTYYADSVKGRFTISRDNAKNTVYLQMNSLKPEDTAVYYCAQVGNTAGYDYWGQGSQVTVSS",
    "polyreactivity (PSR sort gate)": "high polyreactivity"
  },
  {
    "Chain sequence": "QVQLVESGGGLVQAGGSLRLSCAASGSTLLTYTMGWYRQAPGKERELVASITTSGGSTYYADSVKGRFTSSRDNAKNTVYLQMNSLKPEDTAVYYWGQGTQVTVSS",
    "polyreactivity (PSR sort gate)": "low polyreactivity"
  },
  {
    "Chain sequence": "QVQLVDSGGGLVQAGGSLRLSCAASGSTFKIYAMGWYRQAPGKERELVARITGRGGSTYYADSVKGRFTISRDNAKNTVYLQMNSLKPEDTAVYYCAAAKRYYSEMYWGQGTQVTVSS",
    "polyreactivity (PSR sort gate)": "high polyreactivity"
  },
  {
    "Chain sequence": "QVQLVESGGGLVQAGGSLRLSCAASGIIFGFNAMRWYRQAPGKEREFVADITYSGGSTYYADSVKGRFTISRDNAKNTVYLHMNSLKPEDTAVYYCAADEVSFWGYIYDYWGQGTQVTVSS",
    "polyreactivity (PSR sort gate)": "high polyreactivity"
  }
]

We now examine a further sequence.
Request: Using the record for QVQLVESGGGLVQAGGSLRLSCAAYGRNFTYYAMGWYRQAPGKERELVAANSRSGGRTYYADSVKGRFTISRDNAKNTVYLQMNSLKPEDTGVYYCAADRLSLRAYDYWGQGTQVNVSS , report its polyreactivity (PSR sort gate).
Response: high polyreactivity
